Test system: NCI-H23 lung
METHOD: NCI-60 one-dose screen, 48 h (100 = growth as untreated, 0 = no growth, -100 = all killed)
DETAILS: 10 µM unless noted
Description: Growth inhibition of the NCI-H23 human Non-Small Cell Lung tumor cell line is measured as a screen for anti-cancer activity. Cells are grown in 96 well plates and exposed to the test compound for 48 hours. Compounds are tested at a single concentration, which is 10^-5 M for most compounds. The reported endpoint is percent growth (GI% or GIPRCNT), where numbers from 0 - 100% represent growth inhibition, and numbers from -100% - 0 represent cell death. […]
This is part of a sample that, as a whole, favours compounds with a hit. Of some 83,000 tested, about 20% had one in any assay.
Category | rule: reported growth within range, see group 1 = under 50%, group 2 = from 50% up to 90%, group 3 = 90% and over

[
  {
    "MOLECULE": "O=S1(=O)CCC(N(/N=C/c2ccco2)c2ccccc2)C1 (stereo not given)",
    "CAT": "group 3"
  },
  {
    "MOLECULE": "S=c1[nH]nc(-c2cc3ccc2CCc2ccc(cc2)CC3)n1C1CC1",
    "CAT": "group 3"
  },
  {
    "MOLECULE": "COc1ccc(-c2c(N)n[nH]c2-c2cc3c(c(OC)c2OC)OCO3)cc1",
    "CAT": "group 3"
  },
  {
    "MOLECULE": "CCCCC(CC)OC(=O)C(Br)CC (stereo not given)",
    "CAT": "group 3"
  },
  {
    "MOLECULE": "COc1ccc(OC)c(C2OC(c3ccc4ccccc4c3O)=NN2C(C)=O)c1 (stereo not given)",
    "CAT": "group 2"
  },
  {
    "MOLECULE": "CCN(CC)CCC(CNc1ccnc2cc(Cl)ccc12)c1ccccc1 (stereo not given)",
    "CAT": "group 2"
  },
  {
    "MOLECULE": "O=[N+]([O-])c1ccc(Sc2ncccn2)c([N+](=O)[O-])c1",
    "CAT": "group 2"
  },
  {
    "MOLECULE": "O=C(Oc1ccccc1[N+](=O)[O-])C1CCCN1C(=O)OCc1ccccc1 (stereo not given)",
    "CAT": "group 3"
  },
  {
    "MOLECULE": "Cc1ccc(S(=O)(=O)n2cc(C(=O)C(=O)Nc3ccncc3)c3ccccc32)cc1",
    "CAT": "group 1"
  },
  {
    "MOLECULE": "COc1cc(-c2nn(-c3cccc(NC(=O)c4cccc(C(F)(F)F)c4)c3)cc2-c2ccncc2)ccc1Cl",
    "CAT": "group 1"
  },
  {
    "MOLECULE": "C=C1C(=O)O[C@H]2[C@H]1CC/C(COC(=O)NCc1ccccc1OC)=C\\CC[C@@]1(C)O[C@@H]21",
    "CAT": "group 2"
  },
  {
    "MOLECULE": "C=C(C)[C@@H]1CC[C@]2(C(=O)O)CC[C@]3(C)[C@H](CC[C@@H]4[C@@]5(C)C[C@@H](CC#Cc6ccc(C(F)(F)F)cc6)[C@H](O)C(C)(C)[C@@H]5CC[C@]43C)[C@@H]12",
    "CAT": "group 1"
  },
  {
    "MOLECULE": "COc1cccc(CC(C)=C(c2ccc(OCCN(C)C)cc2)c2ccc(OCCN(C)C)cc2)c1",
    "CAT": "group 2"
  },
  {
    "MOLECULE": "CC(C)(C)n1cc(-c2ccnc(NCCCNS(=O)(=O)c3ccc(F)cc3)c2)c(-c2cccc(O)c2)n1",
    "CAT": "group 2"
  },
  {
    "MOLECULE": "O=C1c2c(Cl)c(Cl)c(Cl)c(Cl)c2C(=O)C2(Cl)CC=CCC12Cl (stereo not given)",
    "CAT": "group 1"
  },
  {
    "MOLECULE": "O=C1/C(=C/c2ccc(Cl)cc2)CN(C(=O)CCN2CCC(=NO)CC2)C/C1=C\\c1ccc(Cl)cc1",
    "CAT": "group 1"
  },
  {
    "MOLECULE": "O=C(Nc1ccncc1)C(=O)c1cn(S(=O)(=O)c2ccc(Br)cc2)c2ccccc12",
    "CAT": "group 1"
  },
  {
    "MOLECULE": "CC(C)CSc1nc(NN)c(C#N)c(-c2ccccc2)n1",
    "CAT": "group 3"
  },
  {
    "MOLECULE": "O=S(=O)(NCCCNc1nccc(-n2ccc3cccnc32)n1)c1cccc(C(F)(F)F)c1",
    "CAT": "group 3"
  },
  {
    "MOLECULE": "NC(N)=N/N=C/c1ccc(-c2ccc(-c3cc(Cl)cc(Cl)c3)s2)cc1",
    "CAT": "group 1"
  },
  {
    "MOLECULE": "COc1cc(NC(N)=NCCC(C)(C)Oc2ccc(C(F)(F)F)cc2)ncc1C#N",
    "CAT": "group 1"
  },
  {
    "MOLECULE": "N=C(N)c1ccc(-c2ccc(-c3ccc(-c4cccs4)s3)s2)cc1",
    "CAT": "group 3"
  },
  {
    "MOLECULE": "Nc1ccc(C(=O)CSc2nc3ccccc3[nH]2)cc1",
    "CAT": "group 3"
  },
  {
    "MOLECULE": "CC(C)CSc1nc(NN)c(C#N)c(-c2ccc(F)cc2)n1",
    "CAT": "group 2"
  },
  {
    "MOLECULE": "COc1ccc2c(c1)OC1=C(C(=O)OC1)C2c1cc(OC)c2c(c1)OCO2 (stereo not given)",
    "CAT": "group 1"
  },
  {
    "MOLECULE": "CN(C[C@H]1Cc2c(cccc2N2CCN(c3ncccn3)CC2)CN1)[C@H]1CCCc2cccnc21",
    "CAT": "group 1"
  }
]

Source: PubChem BioAssay (NCI)
